// reported IC50 per item
Target: acid ceramidase (hACR) (Homo sapiens)
Construct: expressed in transfected cells
Sequence (Q13510 22-395): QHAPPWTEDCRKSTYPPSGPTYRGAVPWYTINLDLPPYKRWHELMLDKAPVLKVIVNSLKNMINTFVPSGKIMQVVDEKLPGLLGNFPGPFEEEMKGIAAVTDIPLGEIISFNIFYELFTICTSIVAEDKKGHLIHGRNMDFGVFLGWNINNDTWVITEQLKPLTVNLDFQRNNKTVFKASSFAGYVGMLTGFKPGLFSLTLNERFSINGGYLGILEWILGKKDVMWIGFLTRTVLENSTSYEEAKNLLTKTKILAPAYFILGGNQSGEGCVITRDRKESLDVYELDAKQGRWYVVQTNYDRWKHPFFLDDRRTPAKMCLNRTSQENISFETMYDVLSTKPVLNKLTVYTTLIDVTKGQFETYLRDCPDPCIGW
Test: Acid ceramidase inhibition, biochemical fluorescent assay with cell lysates overexpressing acid ceramidase (substrate Rbm14-12)
Conditions: cell lysate, 1 hr preincubation at RT, pH 4.5, Rbm14-12 6.3 μM; read-out: IC50 hACR

| molecule | IC50 |
| --- | --- |
| CC(C)Oc1nc(-c2cccnc2)cn1C(=O)NCCC1CC1 | 200 to 1000 nM |
| Cc1cn(C(=O)NCCc2ccccc2)c(OCCN2CCOCC2)n1 | < 200 nM |
| CC(C)CNC(=O)n1cnc(-c2cccnc2)c1 | > 1000 nM |
| Cc1cn(C(=O)NCCCC(F)(F)F)c(Oc2ccccc2)n1 | < 200 nM |
| Cc1cn(C(=O)NC2CC2)c(Oc2ccccc2)n1 | < 200 nM |
| CC(C)CC(C)NC(=O)n1cnc(C(C)(C)C)c1 (stereo not shown) | < 200 nM |
| CC(C)CCNC(=O)n1cc(C(C)(C)C)nc1Oc1ccc(F)cc1 | < 200 nM |
| O=C(NCCC1CC1)n1cnc(-c2ccccc2)c1 | 200 to 1000 nM |
| COc1nc(C(C)(C)C)cn1C(=O)NCCC1(C(F)(F)F)CC1 | 200 to 1000 nM |
| CC(C)(C)c1cn(C(=O)NCCc2cccnc2)cn1 | 200 to 1000 nM |
| O=C(NCCC1(C(F)(F)F)CC1)n1cnc(-c2ccccc2)c1 | < 200 nM |
| COc1nc(C)cn1C(=O)NCCC(C)C [Example 119] | 200 to 1000 nM |
| Cc1cn(C(=O)NCC#Cc2ccccc2)c(OCCN2CCN(C)CC2)n1 | < 200 nM |

# credit: patent US20220411388A1
